Target: Glutamine synthetase (Oryza sativa) (UniProt Q01HZ7)
Assay: Inhibition of Oryza sativa cv. Gigante vercellese (rice) glutamine synthetase at 1 mM by transferase assay
Settings: values are per cent of control
Documented residual activity across a set of molecules

{"columns": ["query.smiles", "residual activity, %"],
 "data": [
  ["O=C(O)c1cccnc1NC(P(=O)(O)O)P(=O)(O)O", 61],
  ["O=P(O)(O)C(Nc1ccncc1)P(=O)(O)O", 84.9],
  ["CP(=O)(O)CC[C@H](N)C(=O)O", 25.7],
  ["O=[N+]([O-])c1cccc(NC(P(=O)(O)O)P(=O)(O)O)c1", 95.6],
  ["O=P(O)(O)C(NCCc1ccc(O)cc1)P(=O)(O)O", 98.4],
  ["O=C(O)c1cccc(NC(P(=O)(O)O)P(=O)(O)O)c1", 104]
]}

----------
Target: Glutamine synthetase (Oryza sativa) (UniProt Q01HZ7)
Experiment: Inhibition of Oryza sativa cv. Gigante vercellese (rice) glutamine synthetase at 1 mM after 30 min by hemibiosynthetic assay
Details: values are per cent of control
Documented residual activity across a set of compounds

{"columns": ["query.smiles", "residual activity / %"],
 "data": [
  ["O=C(O)c1cccnc1NC(P(=O)(O)O)P(=O)(O)O", 40.8],
  ["O=P(O)(O)C(Nc1ccc(Cl)cn1)P(=O)(O)O", 17.5],
  ["O=P(O)(O)C(Nc1ccccc1)P(=O)(O)O", 92],
  ["O=P(O)(O)C(Nc1cc(Cl)cc(Cl)c1)P(=O)(O)O", 13.1],
  ["O=P(O)(O)C(NCCc1ccc(O)cc1)P(=O)(O)O", 36.9],
  ["O=[N+]([O-])c1cccc(NC(P(=O)(O)O)P(=O)(O)O)c1", 101],
  ["O=P(O)(O)C(Nc1ncccn1)P(=O)(O)O", 64.3],
  ["O=P(O)(O)C(NC1CCCCC1)P(=O)(O)O", 32.7],
  ["O=P(O)(O)C(NCc1ccccc1)P(=O)(O)O", 89.1],
  ["O=P(O)(O)C(Nc1ccncc1)P(=O)(O)O", 97.2],
  ["Cc1ccc(NC(P(=O)(O)O)P(=O)(O)O)cc1", 57.6]
]}

----------
Tested on: Oryza sativa
Assay: Effect on amino acid pool in Oryza sativa cv. Gigante vercellese (rice) cells assessed as glutamine content per gram fresh weight of culture at 0.5 mM after 48 hr (reference value: 4.24 +/- 0.35 umol)
Assay type: functional
measured.metric: Activity (umol/g fresh weight)

{"columns": ["compound", "units.of.measure", "recorded.measurement"],
 "data": [
  ["O=P(O)(O)C(Nc1ccncc1)P(=O)(O)O", "umol/g fresh weight", 4.79],
  ["O=P(O)(O)C(NCc1ccccn1)P(=O)(O)O", "umol/g fresh weight", 3.25],
  ["O=P(O)(O)C(Nc1cc(Cl)cc(Cl)c1)P(=O)(O)O", "umol/g fresh weight", 2.72],
  ["Cc1ccc(NC(P(=O)(O)O)P(=O)(O)O)cc1 [(P-TOLYLAMINO)METHYLENEDIPHOSPHONIC ACID]", "umol/g fresh weight", 2.95]
]}

----------
Documented residual activity across a set of compounds
Target: Glutamine synthetase (Oryza sativa) (UniProt Q01HZ7)
Test: Inhibition of Oryza sativa cv. Gigante vercellese (rice) glutamine synthetase at 1 mM after 30 min by hemibiosynthetic assay
Conditions: values are per cent of control

{"columns": ["query.smiles", "target.desc", "residual activity / %"],
 "data": [
  ["O=P(O)(O)C(NCc1ccccn1)P(=O)(O)O", "Glutamine synthetase (Oryza sativa) (UniProt Q01HZ7)", 16.1],
  ["O=C(O)c1cccc(NC(P(=O)(O)O)P(=O)(O)O)c1", "Glutamine synthetase (Oryza sativa) (UniProt Q01HZ7)", 99],
  ["CP(=O)(O)CC[C@H](N)C(=O)O", "Glutamine synthetase (Oryza sativa) (UniProt Q01HZ7)", 9.9],
  ["Cc1ccccc1CNC(P(=O)(O)O)P(=O)(O)O", "Glutamine synthetase (Oryza sativa) (UniProt Q01HZ7)", 70.5],
  ["NC(P(=O)(O)O)P(=O)(O)O", "Glutamine synthetase (Oryza sativa) (UniProt Q01HZ7)", 81.2],
  ["Cc1cccc(NC(P(=O)(O)O)P(=O)(O)O)n1", "Glutamine synthetase (Oryza sativa) (UniProt Q01HZ7)", 74.4],
  ["O=P(O)(O)C(Nc1ccccn1)P(=O)(O)O", "Glutamine synthetase (Oryza sativa) (UniProt Q01HZ7)", 30.2]
]}

----------
Molecular target: UniProt Q01HZ7
Sequence (whole entry): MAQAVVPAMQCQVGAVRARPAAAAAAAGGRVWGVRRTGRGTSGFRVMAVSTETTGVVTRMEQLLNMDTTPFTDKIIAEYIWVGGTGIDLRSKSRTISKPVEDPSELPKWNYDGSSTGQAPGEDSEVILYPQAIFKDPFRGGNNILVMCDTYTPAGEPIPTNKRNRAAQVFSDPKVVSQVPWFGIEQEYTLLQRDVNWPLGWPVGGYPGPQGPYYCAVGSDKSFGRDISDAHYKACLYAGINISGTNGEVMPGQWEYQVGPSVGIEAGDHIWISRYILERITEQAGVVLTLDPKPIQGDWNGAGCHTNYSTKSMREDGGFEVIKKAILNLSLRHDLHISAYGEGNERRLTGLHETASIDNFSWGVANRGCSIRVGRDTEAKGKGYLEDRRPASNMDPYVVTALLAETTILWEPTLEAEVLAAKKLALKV
Assay: Inhibition of Oryza sativa cv. Gigante vercellese (rice) glutamine synthetase assessed as inhibition of glutamine synthesis from glutamic acid at 1 mM after 15 min by biosynthetic assay
Conditions: values are per cent of control
Documented residual activity across a set of compounds

{"columns": ["compound", "target.desc", "residual activity"],
 "data": [
  ["O=P(O)(O)C(Nc1cc(Cl)cc(Cl)c1)P(=O)(O)O", "UniProt Q01HZ7", "3.1%"],
  ["O=C(O)c1cccc(NC(P(=O)(O)O)P(=O)(O)O)c1 [3-(DIPHOSPHONOMETHYLAMINO)BENZOIC ACID]", "UniProt Q01HZ7", "62.5%"],
  ["O=P(O)(O)C(Nc1ccccc1)P(=O)(O)O", "UniProt Q01HZ7", "108%"],
  ["Cc1ccc(NC(P(=O)(O)O)P(=O)(O)O)cc1 [(P-TOLYLAMINO)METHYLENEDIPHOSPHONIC ACID]", "UniProt Q01HZ7", "14.3%"],
  ["O=C(O)c1cccnc1NC(P(=O)(O)O)P(=O)(O)O [2-(DIPHOSPHONOMETHYLAMINO)NICOTINIC ACID]", "UniProt Q01HZ7", "27.2%"],
  ["Cc1cccc(NC(P(=O)(O)O)P(=O)(O)O)n1", "UniProt Q01HZ7", "114%"],
  ["O=P(O)(O)C(Nc1ccccn1)P(=O)(O)O", "UniProt Q01HZ7", "37.6%"],
  ["O=P(O)(O)C(Nc1ccc(Cl)cn1)P(=O)(O)O", "UniProt Q01HZ7", "13.9%"],
  ["O=P(O)(O)C(NCc1ccccn1)P(=O)(O)O", "UniProt Q01HZ7", "8.8%"],
  ["Cc1ccccc1CNC(P(=O)(O)O)P(=O)(O)O", "UniProt Q01HZ7", "101%"],
  ["O=P(O)(O)C(Nc1ncccn1)P(=O)(O)O", "UniProt Q01HZ7", "42.3%"],
  ["O=P(O)(O)C(NCc1ccccc1)P(=O)(O)O", "UniProt Q01HZ7", "109%"],
  ["O=P(O)(O)C(Nc1ccncc1)P(=O)(O)O", "UniProt Q01HZ7", "119%"],
  ["O=P(O)(O)C(NC1CCCCC1)P(=O)(O)O", "UniProt Q01HZ7", "50.5%"],
  ["CP(=O)(O)CC[C@H](N)C(=O)O [PHOSPHINOTHRICIN]", "UniProt Q01HZ7", "2%"],
  ["O=P(O)(O)C(NCCc1ccc(O)cc1)P(=O)(O)O", "UniProt Q01HZ7", "72.6%"],
  ["NC(P(=O)(O)O)P(=O)(O)O", "UniProt Q01HZ7", "119%"],
  ["O=[N+]([O-])c1cccc(NC(P(=O)(O)O)P(=O)(O)O)c1", "UniProt Q01HZ7", "97.6%"]
]}

----------
Target: Glutamine synthetase (Oryza sativa, UniProt Q01HZ7)
Sequence (Q01HZ7 whole entry): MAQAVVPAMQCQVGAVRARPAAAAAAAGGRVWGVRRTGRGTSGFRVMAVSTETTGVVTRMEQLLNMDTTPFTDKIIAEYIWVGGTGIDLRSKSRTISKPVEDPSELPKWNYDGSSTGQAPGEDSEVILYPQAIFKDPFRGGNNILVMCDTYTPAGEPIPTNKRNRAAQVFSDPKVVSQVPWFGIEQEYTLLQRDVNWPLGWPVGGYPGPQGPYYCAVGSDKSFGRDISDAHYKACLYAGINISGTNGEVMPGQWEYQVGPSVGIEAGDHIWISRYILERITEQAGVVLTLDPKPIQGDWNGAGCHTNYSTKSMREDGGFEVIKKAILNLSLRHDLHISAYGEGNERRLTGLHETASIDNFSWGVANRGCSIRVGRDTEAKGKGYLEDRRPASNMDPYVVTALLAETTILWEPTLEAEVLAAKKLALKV
Test: Inhibition of Oryza sativa cv. Gigante vercellese (rice) glutamine synthetase assessed as inhibition of glutamine synthesis from glutamic acid after 15 min by biosynthetic assay
Conditions: read-out: I50
Classification by IC50 | ranges: lower band = under 70 µM, central band = from 70 µM up to 700 µM, upper band = 700 µM and over

{"columns": ["query.smiles", "target.desc", "assigned.label"],
 "data": [
  ["O=C(O)c1cccc(NC(P(=O)(O)O)P(=O)(O)O)c1", "Glutamine synthetase (Oryza sativa, UniProt Q01HZ7)", "upper band"],
  ["O=P(O)(O)C(NCCc1ccc(O)cc1)P(=O)(O)O", "Glutamine synthetase (Oryza sativa, UniProt Q01HZ7)", "upper band"],
  ["O=P(O)(O)C(NCc1ccccn1)P(=O)(O)O", "Glutamine synthetase (Oryza sativa, UniProt Q01HZ7)", "lower band"],
  ["O=C(O)c1cccnc1NC(P(=O)(O)O)P(=O)(O)O", "Glutamine synthetase (Oryza sativa, UniProt Q01HZ7)", "central band"],
  ["O=P(O)(O)C(Nc1cc(Cl)cc(Cl)c1)P(=O)(O)O", "Glutamine synthetase (Oryza sativa, UniProt Q01HZ7)", "lower band"],
  ["CP(=O)(O)CC[C@H](N)C(=O)O", "Glutamine synthetase (Oryza sativa, UniProt Q01HZ7)", "lower band"],
  ["O=P(O)(O)C(Nc1ccccn1)P(=O)(O)O", "Glutamine synthetase (Oryza sativa, UniProt Q01HZ7)", "central band"],
  ["Cc1ccc(NC(P(=O)(O)O)P(=O)(O)O)cc1", "Glutamine synthetase (Oryza sativa, UniProt Q01HZ7)", "central band"],
  ["O=P(O)(O)C(NC1CCCCC1)P(=O)(O)O", "Glutamine synthetase (Oryza sativa, UniProt Q01HZ7)", "upper band"],
  ["O=[N+]([O-])c1cccc(NC(P(=O)(O)O)P(=O)(O)O)c1", "Glutamine synthetase (Oryza sativa, UniProt Q01HZ7)", "upper band"]
]}
